Test target: T1, ALPP on ALPP-positive SiHa cervical cancer cells (UniProt P05187 23-506, limits assumed)
T1 construct: whole, on cells; SiHa cells (ATCC) are called ALPP-positive cervical cancer cells, and ALPP is the target meant; SiHa is a human line; also called PLAP; SiHa cells
T1 sequence (P05187 23-506 limits assumed): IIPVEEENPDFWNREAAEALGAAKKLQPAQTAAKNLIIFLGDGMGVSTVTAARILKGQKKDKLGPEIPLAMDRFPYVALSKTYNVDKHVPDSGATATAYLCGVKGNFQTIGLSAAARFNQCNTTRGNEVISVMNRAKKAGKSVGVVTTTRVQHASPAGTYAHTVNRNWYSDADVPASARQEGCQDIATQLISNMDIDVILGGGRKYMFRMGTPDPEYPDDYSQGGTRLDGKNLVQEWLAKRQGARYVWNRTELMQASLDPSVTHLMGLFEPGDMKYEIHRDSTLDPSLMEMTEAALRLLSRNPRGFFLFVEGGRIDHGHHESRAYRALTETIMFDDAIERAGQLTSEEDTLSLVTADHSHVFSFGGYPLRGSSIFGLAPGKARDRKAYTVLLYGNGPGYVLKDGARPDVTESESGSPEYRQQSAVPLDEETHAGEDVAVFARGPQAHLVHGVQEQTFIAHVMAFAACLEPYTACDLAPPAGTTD
Assay text: flow cytometry on SiHa cells, AF488 goat anti-human secondary
Readout: EC50 (mg/L)
Expressed in mg/L, but write only the number.

// worked examples, EC50 included
1. humanized anti-ALPP antibody A08 (antibody, V domains shown, Detected with a goat anti-human secondary antibody; also called A08Ab) VH: QVQLQESGPGLVKPSQTLSLTCTVSGFSLTSYGVSWIRQPPGKGLEWIGVIWEDGSTNYHSALISRVSISVDTSKSQFSLKLSSVDAADTAVYYCARPHYGSSYVGAMEYWGQGTTVTVSS VL: DIQMTQSPSSLSASVGDRVTITCRASENIYSYVAWYQQKPGKAPKFLIYNAKSLAEGVPSRFSGSGSGTDFTLTISSLQPEDFANYYCQHHYVSPWTFGQGTKVEIK = 0.233
2. humanized anti-ALPP antibody A06 (antibody, V domains shown, Detected with a goat anti-human secondary antibody; also called A06Ab) VH: QVQLKESGPGLVAPSQTLSLTCTVSGFSLTSYGVSWIRQPPGKGLEWIGVIWEDGSTNYHSALISRVSISVDTSKSQFSLKLSSVDAADTAVYYCAKPHYGSSYVGAMEYWGQGTTVTVSS VL: DIQMTQSPSSLSASVGDRVTITCRASENIYSYVAWYQQKPGKAPKLLIYNAKSLAEGVPSRFSGSGSGTDFTLTISSLQPEDFANYYCQHHYVSPWTFGQGTKVEIK = 0.257

Measured EC50 of humanized anti-ALPP antibody A04 (antibody, V domains shown, Detected with a goat anti-human secondary antibody; also called A04Ab) VH: QVQLQESGPGLVAPSQTLSLTCTVSGFSLTSYGVSWIRQPPGKGLEWIGVIWEDGSTNYHSALISRVSISVDTSKSQFSLKLSSVDAADTAVYYCARPHYGSSYVGAMEYWGQGTTVTVSS VL: DIQMTQSPSSLSASVGDRVTITCRASENIYSYVAWYQQKPGKAPKFLIYNAKSLAEGVPSRFSGSGSGTDFTLTISSLQPEDFANYYCQHHYVSPWTFGQGTKVEIK : 0.286

Measured EC50 of humanized anti-ALPP antibody A05 (antibody, V domains shown, Detected with a goat anti-human secondary antibody; also called A05Ab) VH: QVQLKESGPGLVAPSQTLSLTCTVSGFSLTSYGVSWIRQPPGKGLEWIGVIWEDGSTNYHSALISRVSISVDTSKSQFSLKLSSVDAADTAVYYCARPHYGSSYVGAMEYWGQGTTVTVSS VL: DIQMTQSPSSLSASVGDRVTITCRASENIYSYVAWYQQKPGKAPKFLIYNAKSLAEGVPSRFSGSGSGTDFTLTISSLQPEDFANYYCQHHYVSPWTFGQGTKVEIK : 0.225
